Where do the numbers come from? From paper PMC6930659.

Attribute: IC50 at 72 h
Experiment: In vitro assay for cytotoxicity on mammalian cells (resazurin)
Type: cell-based, rat
Details: rat
endpoint label: IC50 at 72 h

COc1cc(C)ccc1C(C)C : > 90 µg/mL
C=C[C@](C)(O)CCC=C(C)C : > 90 µg/mL
Cc1ccc(C(C)C)cc1O : 48.8 µg/mL
COc1cc(C(C)C)ccc1C : > 90 µg/mL

---

Tested on: Trypanosoma brucei rhodesiense STIB 900
Assay: In vitro assay for Trypanosoma brucei rhodesiense (resazurin)
Format: cell-based
Details: Trypanosoma brucei, 72 h, STIB 900 blood stream forms, 72 h; means of two independent determinations ± deviation from the mean; read-out: IC50 Trypanosoma brucei rhodesiense
endpoint label: IC50 (µg/mL)

CC1=CC(=O)C(C(C)C)=CC1=O : 0.11
C=CC(=C)CCC=C(C)C : 22
CC1=CCC2CC1C2(C)C (stereo not drawn) : 0.42
C=C[C@](C)(O)CCC=C(C)C : 3.6
CC1=CCC(O)(C(C)C)CC1 (stereo not drawn) : 0.66
C=C1CC/C=C(\C)CC[C@@H]2[C@@H]1CC2(C)C : 28.9

---

Test: In vitro assay for cytotoxicity on mammalian cells (resazurin)
Assay type: cell-based, rat
Conditions: L6 cells (rat skeletal myoblasts); rat skeletal myoblasts, 72 h; means of two determinations ± deviation; read-out: IC50 Cytotoxicity L6 cells
// classify: if (IC50 at 72 h < 50 µg/mL) true else false

C=C1CC/C=C(\C)CC[C@@H]2[C@@H]1CC2(C)C : false
CC1=CCC(O)(C(C)C)CC1 (centres unmarked) : true
CC1=CC(=O)C(C(C)C)=CC1=O : true
C=CC(=C)CCC=C(C)C : false
Cc1ccc(C(C)C)c(O)c1 : false
CC1(C)C2CCC1(C)C(O)C2 (centres unmarked) : false
Cc1ccc(C(C)C)cc1 : false
CC1=CCC2CC1C2(C)C (centres unmarked) : false

---

Experiment: In vitro assay for cytotoxicity on mammalian cells (resazurin)
Type: cell-based, rat
Conditions: rat skeletal myoblasts, 72 h; means of two determinations ± deviation; read-out: IC50 Cytotoxicity L6 cells
Attribute: IC50
endpoint label: IC50 (µg/mL)

CC1=CC=C(C(C)C)CC1 [α-Terpinene] : 84.7
CC1=CC[C@@H](C(C)(C)O)CC1 [α-Terpineol] : 32.3

---

System: Trypanosoma brucei rhodesiense STIB 900
Assay: In vitro assay for Trypanosoma brucei rhodesiense (resazurin)
Assay type: cell-based
Details: Trypanosoma brucei, 72 h, STIB 900 blood stream forms, 72 h; means of two independent determinations ± deviation from the mean; read-out: IC50 Trypanosoma brucei rhodesiense
// classify: if (IC50 < 4 µg/mL) label 1 else label 0

CC1=CC[C@@H](C(C)(C)O)CC1 : label 1
Cc1ccc(C(C)C)c(O)c1 : label 1
CC1(C)C2CCC1(C)C(O)C2 (stereo not drawn) : label 0
Cc1ccc(C(C)C)cc1 : label 0
COc1cc(C(C)C)ccc1C : label 0
